Molecular target: 5-FURes T. b. brucei
Assay: Pyrimidine transport in 5-FURes bloodstream forms
Conditions: read-out: Ki for [3H]-uracil transport in 5-FURes; n = 3
measurement type: Ki

QUERY: Look up and report measured Ki for this entry: "O=c1ccn([C@@H]2O[C@H](CO)[C@@H](O)[C@H]2O)c(=O)[nH]1"
RESULT: ~10 mM

====

Overview of recorded pEC50 for various compounds
Test system: 5F-2′dURes T. b. brucei
Assay: Alamar blue drug sensitivity assay, 5F-2′dURes
Format: cell-based, Trypanosoma brucei brucei
Details: Trypanosoma brucei, read-out: EC50, 5F-2′dURes, Mean
Recall that pEC50 is obtained by taking minus log10 of the concentration measured in molar.

// worked examples, pEC50 included
QUERY: Look up and report measured pEC50 for this entry: "O=c1[nH]cc(F)c(=O)[nH]1"
RESULT: 4.12

QUERY: Look up and report measured pEC50 for this entry: "O=c1[nH]c(=O)n([C@H]2C[C@H](O)[C@@H](CO)O2)cc1F"
RESULT: 2.37

QUERY: Look up and report measured pEC50 for this entry: "N=C(N)c1ccc(OCCCCCOc2ccc(C(=N)N)cc2)cc1"
RESULT: 8.10

QUERY: Look up and report measured pEC50 for this entry: "O=c1cn[nH]c(=O)[nH]1"
RESULT: 2.96

QUERY: Look up and report measured pEC50 for this entry: "O=c1[nH]c(=O)n([C@H]2C[C@H](O)[C@@H](CO)O2)cc1Cl"
RESULT: 4.66

---
QUERY: Look up and report measured pEC50 for this entry: "O=C(O)c1[nH]c(=O)[nH]c(=O)c1F"
RESULT: 4.88

====

System: s427WT T. b. brucei bloodstream forms
Assay: Kinetic parameters of pyrimidine transport in wild-type bloodstream forms
Format: cell-based, Trypanosoma brucei brucei
Details: [3H]-permeant; strain s427WT
Satisfied means recorded Km is 800 µM or above; Not satisfied means it is below 800 µM.

Sample answers from the record:
QUERY: Check this compound for Km at or above 800 µM: Cc1cn([C@H]2C[C@H](O)[C@@H](CO)O2)c(=O)[nH]c1=O [Thymidine]
RESULT: Satisfied

QUERY: Check this compound for Km at or above 800 µM: O=c1[nH]cc(F)c(=O)[nH]1 [5-Fluorouracil, 5-fluorouracil]
RESULT: Not satisfied

QUERY: Check this compound for Km at or above 800 µM: O=c1cc[nH]c(=O)[nH]1 [Uracil]
RESULT: Not satisfied

We next turn to a different compound, shown below.
QUERY: Check this compound for Km at or above 800 µM: O=c1ccn([C@@H]2O[C@H](CO)[C@@H](O)[C@H]2O)c(=O)[nH]1 [Uridine]
RESULT: Satisfied
